Catalogue of vessel count % control readings, one per entry.
test system: in vivo angiogenesis, blood vessel count; test: reduction of blood vessel formation in vivo – HTS, in vivo study (AID 732); conditions: active compounds read low;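 tested at 30 µM in the well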;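 also: zebrafish embryos dosed at one day post fertilization; 0% = reference inhibitor and 100% = plate mean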

Smiles Entry	vessel count % control (%)
c1cnc(N2CCN(Cc3ccc4c(c3)OCO4)CC2)nc1	106
NC/C=C\C(=O)O	111
CCN(CC)c1ncnc2c1ncn2[C@@H]1O[C@H](COP(=O)(O)OP(=O)(O)C(Br)(Br)P(=O)(O)O)[C@@H](O)[C@H]1O	81.9
COc1ccccc1NC(=O)Nc1nc(-c2cccnc2)nc2ccccc12	85.6
O=c1cc(N2CCOCC2)oc2c(-c3ccccc3)cccc12	120
NCCc1ccc(O)cc1	90.2
